- Tested on: Staphylococcus aureus
- PROCEDURE_TEXT: Bactericidal activity against penicillin-resistant Staphylococcus aureus clinical isolate assessed as 3 log reduction in number of colony forming units incubated for 24 hrs followed by aliquots transfer to tryptic soy agar and grown for 24 hrs
- Type: functional
MEASUREMENT_KIND: MBC (µg/mL)

MOLECULE_SMILES	TESTED_SYSTEM	INEQUALITY_OPERATOR	OBSERVED_VALUE
NC(=O)c1c(F)ccc(OCc2nn(-c3ccc(Br)cc3)c(=O)o2)c1F	Staphylococcus aureus	=	1
NC(=O)c1c(F)ccc(OCc2nc3cc(Cl)cnc3s2)c1F	Staphylococcus aureus	=	1
CC(=O)NC[C@H]1CN(c2ccc(N3CCOCC3)c(F)c2)C(=O)O1	Staphylococcus aureus	>	64
CN[C@H](CC(C)C)C(=O)N[C@H]1C(=O)N[C@@H](CC(N)=O)C(=O)N[C@H]2C(=O)N[C@H]3C(=O)N[C@H](C(=O)N[C@H](C(=O)O)c4cc(O)cc(O)c4-c4cc3ccc4O)[C@H](O)c3ccc(c(Cl)c3)Oc3cc2cc(c3O[C@@H]2O[C@H](CO)[C@@H](O)[C@H](O)[C@H]2O[C@H]2C[C@](C)(N)[C@H](O)[C@H](C)O2)Oc2ccc(cc2Cl)[C@H]1O	Staphylococcus aureus	=	1

* * *

- System: Bacillus pumilus
- PROCEDURE_TEXT: Antibacterial activity against Bacillus pumilus CMCC63202 incubated for 24 hrs by CLSI protocol based broth microdilution method
- Type: functional
- REPORTED_CONDITIONS: CMCC63202, 24 h
MEASUREMENT_KIND: log10(MIC) (log10 of the value in µg/mL)

MOLECULE_SMILES	log10(MIC)
NC(=O)c1c(F)ccc(OCc2nc3cc(Cl)cnc3s2)c1F	-0.30
Cc1ccccc1-n1nc(COc2ccc(F)c(C(N)=O)c2F)oc1=O	1.20
NC(=O)c1c(F)ccc(OCc2nn(-c3ccc(Br)cc3)c(=O)n2N)c1F	1.81
NC(=O)c1c(F)ccc(OCc2nn(-c3ccc(Cl)cc3Cl)c(=O)o2)c1F	-0.30
NC(=O)c1c(F)ccc(OCc2nn(-c3ccc(Br)cc3)c(=O)o2)c1F	0.00
N#Cc1ccc(-n2nc(COc3ccc(F)c(C(N)=O)c3F)oc2=O)cc1	0.60
CC(C)(C)c1ccc(Cn2nc(COc3ccc(F)c(C(N)=O)c3F)oc2=O)cc1	1.51
Cc1ccc(-n2nc(COc3ccc(F)c(C(N)=O)c3F)oc2=O)cc1	0.90
NC(=O)c1c(F)ccc(OCc2nn(-c3ccc(F)cc3)c(=O)o2)c1F	0.90
CCCCc1ccc(-n2nc(COc3ccc(F)c(C(N)=O)c3F)oc2=O)cc1	-0.30
Cc1ccc(-n2nc(COc3ccc(F)c(C(N)=O)c3F)oc2=O)c(C)c1	0.30
NC(=O)c1c(F)ccc(OCc2nn(Cc3ccc(Br)cc3)c(=O)o2)c1F	1.51
NC(=O)c1c(F)ccc(OCc2nn(-c3ccc(Cl)cc3)c(=O)o2)c1F	0.30
CC(C)(C)c1ccc(-n2nc(COc3ccc(F)c(C(N)=O)c3F)oc2=O)cc1	0.30
CC(C)c1ccc(-n2nc(COc3ccc(F)c(C(N)=O)c3F)oc2=O)cc1	0.30
CN(C)n1c(COc2ccc(F)c(C(N)=O)c2F)nn(-c2ccc(Br)cc2)c1=O	1.51
Cn1c(COc2ccc(F)c(C(N)=O)c2F)nn(-c2ccc(Br)cc2)c1=O	0.00
Cc1cc(Cl)ccc1-n1nc(COc2ccc(F)c(C(N)=O)c2F)oc1=O	-0.30
COc1ccc(-n2nc(COc3ccc(F)c(C(N)=O)c3F)oc2=O)cc1	0.90
NC(=O)c1c(F)ccc(OCc2nn(-c3ccccc3)c(=O)o2)c1F	1.81
NC(=O)c1c(F)ccc(OCc2nn(-c3ccc(Cl)c(Cl)c3)c(=O)o2)c1F	0.60
CC(C)(C)c1ccc(-c2nn(COc3ccc(F)c(C(N)=O)c3F)c(=O)o2)cc1	1.51

* * *

- Test system: Bacillus pumilus
- PROCEDURE_TEXT: Antibacterial activity against Bacillus pumilus CMCC63202 incubated for 24 hrs by CLSI protocol based broth microdilution method
- Assay type: functional
- REPORTED_CONDITIONS: CMCC63202, 24 h

COMPOUND	MIC
CC(C)(C)c1ccc(-n2nc(CCOc3ccc(F)c(C(N)=O)c3F)oc2=O)cc1	≤ 0.125 µg/mL
CCc1ccc(-n2nc(COc3ccc(F)c(C(N)=O)c3F)oc2=O)cc1	4 µg/mL
CC(C)(C)c1ccc(N2N=C(COc3ccc(F)c(C(N)=O)c3F)CC2=O)cc1	> 64 µg/mL
CCn1c(COc2ccc(F)c(C(N)=O)c2F)nn(-c2ccc(Br)cc2)c1=O	> 64 µg/mL
Cc1cccc(-n2nc(COc3ccc(F)c(C(N)=O)c3F)oc2=O)c1	64 µg/mL
CC(=O)NC[C@H]1CN(c2ccc(N3CCOCC3)c(F)c2)C(=O)O1 [LINEZOLID]	2 µg/mL
CCCCc1ccc(N2N=C(COc3ccc(F)c(C(N)=O)c3F)CC2=O)cc1	> 64 µg/mL
NC(=O)c1c(F)ccc(OCc2nn(Cc3ccc(Cl)cc3)c(=O)o2)c1F	32 µg/mL
NC(=O)c1c(F)ccc(OCc2nn(-c3ccc(C(F)(F)F)cc3)c(=O)o2)c1F	2 µg/mL
NC(=O)c1c(F)ccc(OCCc2nn(-c3ccc(Br)cc3)c(=O)o2)c1F	≤ 0.125 µg/mL
